From: ChEMBL document CHEMBL1201862

IC50 by entry:
Target: Carboxy-terminal domain RNA polymerase II polypeptide A small phosphatase 1 (Homo sapiens, UniProt Q9GZU7)
Sequence (Q9GZU7 whole entry, the tested form may be a part): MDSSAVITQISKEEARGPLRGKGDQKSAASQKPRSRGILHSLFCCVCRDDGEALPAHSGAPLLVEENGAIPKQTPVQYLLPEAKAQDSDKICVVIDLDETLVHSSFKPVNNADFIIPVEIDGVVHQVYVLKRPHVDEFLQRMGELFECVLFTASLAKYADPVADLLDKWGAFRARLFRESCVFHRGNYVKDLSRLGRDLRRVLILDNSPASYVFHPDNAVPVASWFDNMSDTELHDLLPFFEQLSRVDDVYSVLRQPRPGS
Assay: CTDSP1 inhibitors, concentration-response, biochemical, absorbance readout, ultra-high-throughput screen actives (AID 540297)
Type: functional
Active and inactive are the calls of the source. No stated cut-off is given here; in the data, actives have a measured IC50 and inactives only a lower limit.

Asked: Please give the measured IC50 for this compound: `Cc1nn(-c2cc(Cl)ccc2N)c(=O)c2ccccc12`
Given back: 63.2 µM (active)

Asked: Please give the measured IC50 for this compound: `Cc1ccc(C)c(S(=O)(=O)Nc2ccc3oc(C)c(C(=O)O)c3c2)c1`
Given back: 3.21 µM (active)

Asked: Please give the measured IC50 for this compound: `O=C(N/N=C/c1ccc(OC(=O)c2cccs2)cc1)c1cccc(F)c1`
Given back: 3.55 µM (active)

Asked: Please give the measured IC50 for this compound: `CCCN(CCC)S(=O)(=O)c1ccc(NC(=O)Cc2cccs2)cc1`
Given back: 9.83 µM (active)

Asked: Please give the measured IC50 for this compound: `C=C1c2cccc(OC)c2O[C@H](C(=O)OCC)[C@@H]1CCCCCC`
Given back: 10.2 µM (active)
